Hey, just so you know, these numbers are from paper PMC5550016.

List of pKi values.
Biological target: purified recombinant urease from H. pylori (Helicobacter pylori, UniProt B5Z674)
Construct: plasmid pGEM::ureOP, which encodes the entire urease gene cluster, was used to produce recombinant H. pylori urease; made in house; host or cells: E. coli Rosetta2 (DE3) + pGEM::ureOP
Sequence (B5Z674 whole entry, looked up): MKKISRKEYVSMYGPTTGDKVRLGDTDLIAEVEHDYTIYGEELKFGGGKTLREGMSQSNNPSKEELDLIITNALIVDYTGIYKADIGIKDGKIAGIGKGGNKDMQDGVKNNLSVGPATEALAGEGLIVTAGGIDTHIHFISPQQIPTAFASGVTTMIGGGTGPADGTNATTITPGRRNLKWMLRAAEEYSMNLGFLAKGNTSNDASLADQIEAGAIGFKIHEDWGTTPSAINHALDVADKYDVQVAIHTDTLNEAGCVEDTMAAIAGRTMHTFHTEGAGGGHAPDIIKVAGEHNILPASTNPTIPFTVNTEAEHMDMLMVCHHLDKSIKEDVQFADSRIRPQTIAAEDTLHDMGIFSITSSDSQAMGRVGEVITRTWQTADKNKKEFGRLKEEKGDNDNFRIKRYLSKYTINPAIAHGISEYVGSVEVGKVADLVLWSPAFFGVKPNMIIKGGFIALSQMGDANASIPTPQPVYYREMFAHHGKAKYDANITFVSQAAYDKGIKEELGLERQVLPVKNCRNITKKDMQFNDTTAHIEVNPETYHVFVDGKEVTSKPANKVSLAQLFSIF
Experiment: Inhibition of purified recombinant H. pylori urease (phenol-hypochlorite, Lineweaver-Burk)
Format: biochemical
Settings: Ki, 50 mM phosphate buffer pH 7.5, 37°C, 0.1–2.5 mM urea; competitive reversible inhibition
Units for pKi: none; it is -log10 of a concentration expressed in mol/L.

Task: Sample `CN(C)CP(=O)(O)CN` — what was its pKi?
Output: 4.52

Task: Which pKi value belongs to `CNCP(=O)(O)O` ?
Output: 4.42

Task: Look up pKi: `CNCP(=O)(O)CO`
Output: 5.99

Task: Given `CNCP(=O)(O)CNC` , state its recorded pKi.
Output: 4.58

Task: For `NCP(=O)(O)CNCc1ccccc1` , what is its reported pKi?
Output: 4.35
